target: Adenosine A-1 receptor (Rattus norvegicus, UniProt P25099); construct: the membranes are isolated from whole animal brains; assay: Test for affinity for brain adenosine A-1 receptor binding sites ([3H]cyclohexyladenosine competition); conditions: [3H]cyclohexyladenosine 0.8 nM, rat brain membranes, 25°C, 2 hours
Sequence (P25099 whole entry): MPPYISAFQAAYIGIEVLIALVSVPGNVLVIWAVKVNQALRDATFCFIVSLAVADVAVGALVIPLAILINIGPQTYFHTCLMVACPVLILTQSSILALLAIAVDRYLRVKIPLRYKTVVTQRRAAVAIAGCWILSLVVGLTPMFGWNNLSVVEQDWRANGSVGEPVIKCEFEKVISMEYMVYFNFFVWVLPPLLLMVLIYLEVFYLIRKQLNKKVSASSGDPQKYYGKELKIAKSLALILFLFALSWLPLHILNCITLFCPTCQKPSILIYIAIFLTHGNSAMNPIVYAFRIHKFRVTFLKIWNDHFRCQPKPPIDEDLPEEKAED
Decide using Ki alone. Strictly below 2000 nM: Criterion met. Equal to or above 2000 nM: Criterion not met.

1) CCCOc1nc(N[C@H](CO)Cc2ccccc2)c2cnn(-c3ccccc3)c2n1 :: Criterion met
2) CCCOc1nc(N[C@@H](C)Cc2ccccc2)c2cnn(-c3ccccc3)c2n1 :: Criterion not met
3) CCCOc1nc(N[C@H](CO)Cc2ccccc2)c2ncn([C@@H]3O[C@H](CO)[C@@H](O)[C@H]3O)c2n1 :: Criterion met
4) CCCOc1nc(N[C@@H](CO)Cc2ccccc2)c2ncn([C@@H]3O[C@H](CO)[C@@H](O)[C@H]3O)c2n1 :: Criterion not met
5) CCCOc1nc(N[C@@H](CO)Cc2ccccc2)c2cnn(-c3ccccc3)c2n1 :: Criterion met

Where do these numbers come from? They come from patent EP0390112B1.
